List of IC50 values.
# Tested on: SW480 (G12V) cells
# PROCEDURE_SUMMARY: Cell viability assay (CELLTITER-GLO), SW480 cells
# Format: cell-based
# MEASUREMENT_CONTEXT: Homo sapiens, 72 h, 3 days, CELLTITER-GLO luminescence, read-out: Inhibition of Cancerous Cells IC50 SW480 (G12V)
Give the number; nM is assumed, so skip it.

Reference set, count: 4
Let me check: Cc1nn2c(N3CCN(CCO)CC3)cc(-c3ccccc3)nc2c1-c1ccccc1 [drawing 105, reference compound] , system SW480 (G12V) cells, measured IC50 is 1400

SW480 (G12V) cells IC50 of Cc1nn2c(N3CCN(CCO)CC3)cc(-c3cccc(CCOCCNC(=O)CC45CC6CC(CC(C6)C4)C5)c3)nc2c1-c1ccccc1 [Compound A4] is 1200

Note to self: IC50 of Cc1nn2c(N3CCN(CCO)CC3)cc(-c3ccccc3)nc2c1-c1cccc(CCCCCCCCCNC(=O)CC23CC4CC(CC(C4)C2)C3)c1 [Compound C2] with SW480 (G12V) cells was 2200

Measured IC50 (SW480 (G12V) cells), entry Cc1nn2c(N3CCN(CCO)CC3)cc(-c3cccc(CCNC(=O)CC45CC6CC(CC(C6)C4)C5)c3)nc2c1-c1ccccc1 [Compound A2] : 840

Proceeding to the next molecule to report its IC50.
Case Cc1nn2c(N3CCN(CCO)CC3)cc(-c3cccc(CCOCCOC(=O)CC45CC6CC(CC(C6)C4)C5)c3)nc2c1-c1ccccc1 [Compound A3] , SW480 (G12V) cells, IC50 recorded as 1200

// data source = patent US20240190885A1
